Origin of the recorded values: ChEMBL document CHEMBL3751822

Target: Voltage-gated inwardly rectifying potassium channel KCNH2 (Homo sapiens, UniProt Q12809)
Sequence (Q12809 whole entry): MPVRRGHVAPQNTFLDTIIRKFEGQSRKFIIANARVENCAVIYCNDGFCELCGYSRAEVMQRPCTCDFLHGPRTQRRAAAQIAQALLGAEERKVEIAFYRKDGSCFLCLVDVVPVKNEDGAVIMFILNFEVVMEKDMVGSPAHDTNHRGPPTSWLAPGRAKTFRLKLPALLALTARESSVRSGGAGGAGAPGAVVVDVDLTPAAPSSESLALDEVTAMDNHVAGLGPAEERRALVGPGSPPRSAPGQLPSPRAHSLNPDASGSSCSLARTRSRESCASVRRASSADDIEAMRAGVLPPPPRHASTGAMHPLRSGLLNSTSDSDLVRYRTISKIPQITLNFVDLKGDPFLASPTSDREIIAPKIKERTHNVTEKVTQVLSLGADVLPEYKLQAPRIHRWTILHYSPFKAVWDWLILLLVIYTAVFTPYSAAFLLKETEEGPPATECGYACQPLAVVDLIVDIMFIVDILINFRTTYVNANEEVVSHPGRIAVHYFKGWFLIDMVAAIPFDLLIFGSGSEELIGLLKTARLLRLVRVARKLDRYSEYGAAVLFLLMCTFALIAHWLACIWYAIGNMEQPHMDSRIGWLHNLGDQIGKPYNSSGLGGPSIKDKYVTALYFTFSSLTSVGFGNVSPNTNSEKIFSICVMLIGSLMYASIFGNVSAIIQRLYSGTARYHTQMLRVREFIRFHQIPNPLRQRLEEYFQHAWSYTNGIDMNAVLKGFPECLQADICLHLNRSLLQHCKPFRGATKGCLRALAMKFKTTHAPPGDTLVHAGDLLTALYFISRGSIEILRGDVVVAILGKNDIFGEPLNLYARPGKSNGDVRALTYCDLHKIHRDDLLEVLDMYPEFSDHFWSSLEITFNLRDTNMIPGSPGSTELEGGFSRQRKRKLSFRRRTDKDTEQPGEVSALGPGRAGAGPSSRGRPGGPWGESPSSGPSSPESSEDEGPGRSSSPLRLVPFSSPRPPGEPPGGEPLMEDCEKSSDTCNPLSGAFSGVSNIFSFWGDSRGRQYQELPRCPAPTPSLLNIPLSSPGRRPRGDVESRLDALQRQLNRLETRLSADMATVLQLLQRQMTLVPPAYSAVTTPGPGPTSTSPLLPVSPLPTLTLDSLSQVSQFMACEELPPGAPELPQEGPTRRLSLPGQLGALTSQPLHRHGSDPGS
Experiment: Displacement of MK499 from human ERG
Values of IC50 strictly less than 6 µM map to True, and values of at least 6 µM map to False.

Illustrative cases are given below, each with its answer.
{"compound": "COc1ccc2ncc(F)c([C@@H](O)[C@H](O)C34CCC(NCc5ccc6c(n5)NC(=O)CO6)(CC3)CO4)c2n1", "tested-target": "Voltage-gated inwardly rectifying potassium channel KCNH2 (Homo sapiens, UniProt Q12809)", "class": "False"}
{"compound": "COc1ccc2ncc(F)c(C(=O)CC34CCC(NCc5ccc6c(n5)NC(=O)CO6)(CC3)CO4)c2n1", "tested-target": "Voltage-gated inwardly rectifying potassium channel KCNH2 (Homo sapiens, UniProt Q12809)", "class": "True"}

Req: Hello, I'm reviewing records and need to know if IC50 of COc1ccc2ncc(F)c([C@H](O)[C@@H](O)C34CCC(NCc5ccc6c(n5)NC(=O)CO6)(CC3)CO4)c2n1 (single isomer, unassigned; (-)) is below 6 µM. Could you check?
Resp: False

Req: Hello, I'm reviewing records and need to know if IC50 of COc1ccc2ncc(F)c(C/C(=N/O)C34CCC(NCc5ccc6c(n5)NC(=O)CO6)(CC3)CO4)c2n1 is below 6 µM. Could you check?
Resp: True

Req: Hello, I'm reviewing records and need to know if IC50 of COc1ccc2ncc(F)c(C(CC34CCC(NCc5ccc6c(n5)NC(=O)CO6)(CC3)CO4)C(=O)O)c2n1 (racemic) is below 6 µM. Could you check?
Resp: True

Req: Hello, I'm reviewing records and need to know if IC50 of COc1ccc2ncc(F)c(C(O)CC34CCC(NCc5ccc6c(n5)NC(=O)CO6)(CC3)CO4)c2n1 (single isomer, unassigned; (+)) is below 6 µM. Could you check?
Resp: True

Req: Hello, I'm reviewing records and need to know if IC50 of COc1ccc2ncc(F)c(C/C(=N\O)C34CCC(NCc5ccc6c(n5)NC(=O)CO6)(CC3)CO4)c2n1 is below 6 µM. Could you check?
Resp: True

Req: Hello, I'm reviewing records and need to know if IC50 of COc1ccc2ncc(F)c(C(O)CC34CCC(NCc5ccc6c(n5)NC(=O)CO6)(CC3)CO4)c2n1 (single isomer, unassigned; (-)) is below 6 µM. Could you check?
Resp: True

* * *

Test system: Streptococcus pneumoniae
Assay: Antibacterial activity against Streptococcus pneumoniae IID553 by micro-broth dilution method
Type: functional
Settings: Streptococcus pneumoniae, IID553; read-out: MIC
endpoint: MIC (µg/mL)
Answers are plain numbers, in µg/mL.

{"molecule": "COc1ccc2ncc(F)c(C(=O)CC34CCC(NCc5ccc6c(n5)NC(=O)CO6)(CC3)CO4)c2n1", "quantitative-readout": 0.25}

For every item in the list below, what is its measured MIC?
1. COc1ccc2ncc(F)c([C@H]3OC(=O)O[C@@H]3C34CCC(NCc5ccc6c(n5)NC(=O)CO6)(CC3)CO4)c2n1 (single isomer, unassigned; (+))
2. COc1ccc2ncc(F)c(CC(N)C34CCC(NCc5ccc6c(n5)NC(=O)CO6)(CC3)CO4)c2n1 (single isomer, unassigned; (+))

Resp:
1: 16; 2: 2

* * *

System: Staphylococcus aureus
Assay: Antibacterial activity against Staphylococcus aureus Smith by micro-broth dilution method
Type: functional
Conditions: Staphylococcus aureus, Smith; read-out: MIC
Hi there, I'd appreciate the recorded MIC for every entry that follows.
Numbers only, in µg/mL.

{"compound": "COc1ccc2ncc(F)c(C(CO)CC34CCC(NCc5ccc6c(n5)NC(=O)CO6)(CC3)CO4)c2n1 (racemic)", "MIC, µg/mL": 1}
{"compound": "COc1ccc2ncc(F)c(CC(NS(C)(=O)=O)C34CCC(NCc5ccc6c(n5)NC(=O)CO6)(CC3)CO4)c2n1 (racemic)", "MIC, µg/mL": 32}

For every item in the list below, what is its measured MIC?
1. COc1ccc2ncc(F)c([C@H]3OC(=O)O[C@@H]3C34CCC(NCc5ccc6c(n5)NC(=O)CO6)(CC3)CO4)c2n1 (single isomer, unassigned; (+))
2. COc1ccc2ncc(F)c(C(CC34CCC(NCc5ccc6c(n5)NC(=O)CO6)(CC3)CO4)C(=O)O)c2n1 (racemic)
3. COc1ccc2ncc(F)c(CC(N)C34CCC(NCc5ccc6c(n5)NC(=O)CO6)(CC3)CO4)c2n1 (single isomer, unassigned; (+))

Resp:
2
1
0.25

For every item in the list below, what is its measured MIC?
1. COc1ccc2ncc(F)c([C@@H]3OC(=O)O[C@H]3C34CCC(NCc5ccc6c(n5)NC(=O)CO6)(CC3)CO4)c2n1 (single isomer, unassigned; (-))
2. COc1ccc2ncc(F)c(C(C)(O)CC34CCC(NCc5ccc6c(n5)NC(=O)CO6)(CC3)CO4)c2n1 (racemic)

Resp:
[0.25, 1]
